Where these numbers come from: patent US20260193238A1

Below: a set of entries, each annotated with reported pIC50.
target: PARP1 (Homo sapiens, UniProt P09874); experiment: PARP1 biochemical DELFIA assay (auto-PARylation); conditions: Table 1
Sequence (P09874 whole entry): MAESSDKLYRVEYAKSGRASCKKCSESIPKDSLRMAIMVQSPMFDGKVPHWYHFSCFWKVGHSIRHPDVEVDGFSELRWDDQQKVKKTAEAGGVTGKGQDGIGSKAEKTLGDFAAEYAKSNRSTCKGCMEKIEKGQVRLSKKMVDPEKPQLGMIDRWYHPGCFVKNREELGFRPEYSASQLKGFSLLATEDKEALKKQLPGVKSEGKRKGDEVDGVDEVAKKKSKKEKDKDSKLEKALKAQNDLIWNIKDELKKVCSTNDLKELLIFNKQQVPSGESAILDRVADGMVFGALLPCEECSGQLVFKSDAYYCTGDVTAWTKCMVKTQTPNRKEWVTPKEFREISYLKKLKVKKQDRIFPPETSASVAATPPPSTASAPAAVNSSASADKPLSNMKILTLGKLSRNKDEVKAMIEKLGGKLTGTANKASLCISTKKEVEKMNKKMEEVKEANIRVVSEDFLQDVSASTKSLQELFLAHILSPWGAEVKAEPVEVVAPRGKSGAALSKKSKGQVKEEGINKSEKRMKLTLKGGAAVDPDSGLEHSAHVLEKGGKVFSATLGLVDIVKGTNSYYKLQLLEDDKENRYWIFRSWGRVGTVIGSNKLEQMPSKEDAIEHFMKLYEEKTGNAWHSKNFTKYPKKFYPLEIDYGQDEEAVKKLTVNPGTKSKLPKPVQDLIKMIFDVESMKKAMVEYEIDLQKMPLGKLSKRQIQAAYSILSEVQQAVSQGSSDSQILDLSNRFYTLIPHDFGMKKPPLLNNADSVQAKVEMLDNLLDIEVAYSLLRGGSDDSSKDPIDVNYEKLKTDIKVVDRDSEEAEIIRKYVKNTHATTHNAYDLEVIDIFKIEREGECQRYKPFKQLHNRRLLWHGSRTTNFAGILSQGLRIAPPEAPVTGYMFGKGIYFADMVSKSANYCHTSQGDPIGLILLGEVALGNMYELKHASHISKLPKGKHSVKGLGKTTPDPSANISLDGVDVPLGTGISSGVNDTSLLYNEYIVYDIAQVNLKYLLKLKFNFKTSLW
pIC50: −log10 of the molar value.

Solved cases (5 shown):
1. O=C(CN1CCCC(c2cc(C(F)(F)F)c(=O)[nH]n2)C1)N1CCN(c2ncc(C(F)(F)F)cn2)CC1 (single isomer, unassigned) [Compound 14a]; 7.00 to 8.00
2. O=C(CCN1CCC(c2cc(C(F)(F)F)c(=O)[nH]n2)C1)N1CCN(c2ncc(C(F)(F)F)cn2)CC1 (single isomer, unassigned); 6.00 to 7.00
3. O=C(CN1CCC(c2cc(C(F)(F)F)c(=O)[nH]n2)C1)N1CCN(c2ncc(C(F)(F)F)cn2)CC1 (racemic); 6.00 to 7.00
4. O=C(CCN1CCCC(c2cc(C(F)(F)F)c(=O)[nH]n2)C1)N1CCN(c2ncc(C(F)(F)F)cn2)CC1 (single isomer, unassigned) [Compound 1b]; 7.00 to 8.00
5. CNC(=O)c1ccc(N2CCN(C(=O)CCN3CCCC(c4cc(C(F)(F)F)c(=O)[nH]n4)C3)CC2)nc1 (single isomer, unassigned) [Compound 28a]; 6.00 to 7.00

pIC50 measured on N#Cc1ccc(N2CCN(C(=O)CCN3CCCC(c4cc(C(F)(F)F)c(=O)[nH]n4)C3)CC2)nc1 (single isomer, unassigned) [Compound 11b] = 6.00 to 7.00

---

target: PARP1 (Homo sapiens, UniProt P09874); assay: PARP1 biochemical DELFIA assay (auto-PARylation); settings: Table 1A
pIC50: −log10 of the molar value.
OBSERVABLE: pIC50

1. O=C(CN1CCCC1c1c[nH]c(=O)c(C(F)(F)F)c1)N1CCN(c2ncc(C(F)(F)F)cn2)CC1 (single isomer, unassigned) [Compound 60a]; 7.00 to 8.00

pIC50 measured on O=C(CN1CCCC1c1cc(Cl)c(=O)[nH]n1)N1CCN(c2ncc(C(F)(F)F)cn2)CC1 (racemic) [Compound 68rac] = 6.00 to 7.00

pIC50 measured on N#Cc1cc(C2CCCN2CC(=O)N2CCN(c3ncc(C(F)(F)F)cn3)CC2)n[nH]c1=O (single isomer, unassigned) [Compound 98a] = 6.00 to 7.00

pIC50 measured on O=C(CN1CCCC1c1c[nH]c(=O)c(Cl)c1)N1CCN(c2ncc(C(F)(F)F)cn2)CC1 (single isomer, unassigned) [Compound 78a] = 6.00 to 7.00

pIC50 measured on O=C(CN1CCCC1c1cc(C(F)(F)F)c(=O)[nH]n1)N1CCN(c2ccc(Cl)cn2)CC1 (single isomer, unassigned) [Compound 41a] = 7.00 to 8.00

---

Below: a set of entries, each annotated with reported IC50.
target: UniProt P09874; experiment: PARP1 biochemical DELFIA assay (auto-PARylation); details: Table 1A

Solved cases (5 shown):
1. O=C(CN1CCCC1c1c[nH]c(=O)c(C(F)(F)F)c1)N1CCN(c2ncc(C(F)(F)F)cn2)CC1 (racemic) [Compound 60rac]; 100 to 1000 nM
2. N#Cc1cc(Cl)cnc1N1CCN(C(=O)CN2CCCC2c2cc(C(F)(F)F)c(=O)[nH]n2)CC1 (single isomer, unassigned) [Compound 144a]; 10 to 100 nM
3. N#Cc1ccc2nc(N3CCN(C(=O)CN4CCCC4c4cc(C(F)(F)F)c(=O)[nH]n4)CC3)oc2c1 (single isomer, unassigned) [Compound 96a]; 100 to 1000 nM
4. O=C(CN1CCCC1c1c[nH]c(=O)c(C(F)(F)F)c1)N1CCN(c2ncc(Cl)cn2)CC1 (single isomer, unassigned) [Compound 74a]; 10 to 100 nM
5. O=C(CN1CCCC1c1cc(C(F)(F)F)c(=O)[nH]n1)N1CCN(c2ccc(C(F)F)cn2)CC1 (single isomer, unassigned) [Compound 126b]; 1000 to 10000 nM

IC50 measured on COC1CC(c2cc(C(F)(F)F)c(=O)[nH]n2)N(CC(=O)N2CCN(c3ncc(C(F)(F)F)cn3)CC2)C1 (single isomer, unassigned) [Compound 138trans1] = 100 to 1000 nM

IC50 measured on O=C(CN1CCCC1c1cc(C(F)(F)F)c(=O)[nH]n1)N1CCN(c2ncc(C3CC3)cn2)CC1 (single isomer, unassigned) [Compound 69b] = 1000 to 10000 nM

IC50 measured on O=C(CN1CCCC1c1cc(C(F)(F)F)c(=O)[nH]n1)N1CCN(c2nc3cc(F)ccc3o2)CC1 (single isomer, unassigned) [Compound 150b] = 1000 to 10000 nM
